EXPERIMENTAL TARGET: Bcl-2, biotinylated (C-terminal avi-6His) (human, UniProt P10415 1-239, biotin (enzymatic, BirA))
Sequence (P10415 1-207): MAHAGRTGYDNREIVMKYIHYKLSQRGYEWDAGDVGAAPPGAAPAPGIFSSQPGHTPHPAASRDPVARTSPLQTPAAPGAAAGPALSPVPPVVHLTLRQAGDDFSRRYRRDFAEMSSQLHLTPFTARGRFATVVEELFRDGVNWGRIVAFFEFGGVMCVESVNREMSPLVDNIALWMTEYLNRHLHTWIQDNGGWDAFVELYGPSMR
ASSAY TEXT: BLI
The reader will find reported pKd values listed item by item below.
Reminder that pKd means the negative base-10 logarithm of the concentration expressed in mol/L.

BINDER: B-CDP01 (Bcl-B-targeting computationally designed protein) (designed binder) ADPKKVLDKAKDQAENRVRELKQELERLYKEARKLDLTQEMRRKLEWRYIAAMLKAIGDILNAIAQAENEADKLKKAGLVNSQQLDELRRRLEELAKEAARKAHDYGREFQLKLEY
pKd: 7.77

BINDER: 2-CDP06 (Bcl-2-targeting Computationally Designed Protein) (designed binder) MADPKKVLDKAKDEAENRVRELKQKLEELYKEARKLDLTQEMRQELVDKARAASLQAIGDIFYAILRALAEAEKLKKAGLVNSQQLDELKRRLEELAEEARRKAEKLGDEFRLKLEYG
pKd: 8.05

BINDER: W-CDP03 (Bcl-w-targeting computationally designed protein) (designed binder) ADPKKVFDEAKDRAENNVRRLKQKLEELYKEARKKDLTQEEREKLKEKYKTAMAAAALAAIGDAFNALLKARKLHKNGQVNEQQLEELARRLQELAKEAFQKAKDYANEFEYKLEY
pKd: 7.52

Item: X-CDP07 (Bcl-xL-targeting computationally designed protein) (designed binder) ADPKKVLDKAKDRAENVVRKLKKELEELYKEARKLDLTQEMRDRIRLAAIAARIAAFGDIFHAIMEALEEARKLKKAGLVNSQQLDELKRRLEELDEEAAQRAEKLGKEFELKLEY | pKd: 8.40
